Reference for the values: ChEMBL document CHEMBL4376834

- subject.of.test: SRSF protein kinase 3 (Homo sapiens)
- Sequence (Q9UPE1 whole entry): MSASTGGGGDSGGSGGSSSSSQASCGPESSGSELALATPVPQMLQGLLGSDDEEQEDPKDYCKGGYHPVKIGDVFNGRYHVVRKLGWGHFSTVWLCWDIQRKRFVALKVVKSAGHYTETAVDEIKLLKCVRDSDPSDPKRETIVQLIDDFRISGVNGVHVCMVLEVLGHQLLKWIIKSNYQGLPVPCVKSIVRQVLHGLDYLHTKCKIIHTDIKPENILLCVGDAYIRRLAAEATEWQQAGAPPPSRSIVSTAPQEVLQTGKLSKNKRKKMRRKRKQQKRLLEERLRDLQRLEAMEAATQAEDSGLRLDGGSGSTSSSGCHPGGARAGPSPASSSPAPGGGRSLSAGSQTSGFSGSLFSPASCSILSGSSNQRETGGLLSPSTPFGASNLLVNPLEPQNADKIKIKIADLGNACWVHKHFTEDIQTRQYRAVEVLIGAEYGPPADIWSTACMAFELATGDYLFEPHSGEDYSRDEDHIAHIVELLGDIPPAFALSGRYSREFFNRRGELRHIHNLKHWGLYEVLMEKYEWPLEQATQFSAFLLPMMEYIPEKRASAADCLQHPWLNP
- method: Inhibition of recombinant full-length human MSSK1 using ERMRPRKRQGSVRRRV as substrate measured after 40 mins in presence of [gamma33P]ATP by radiometric scintillation counting analysis
metric.name: IC50

(Q) Any idea what IC50 came out for CN(C)c1ccc(C(=O)Nc2cccc(NC(=O)COc3ccc4c(=O)ccoc4c3)c2)cc1 on SRSF protein kinase 3 (Homo sapiens)?
(A) > 10 µM

* * *

- subject.of.test: Rho-associated protein kinase 2 (Homo sapiens, UniProt O75116)
- Sequence (O75116 whole entry, the tested form may be a part): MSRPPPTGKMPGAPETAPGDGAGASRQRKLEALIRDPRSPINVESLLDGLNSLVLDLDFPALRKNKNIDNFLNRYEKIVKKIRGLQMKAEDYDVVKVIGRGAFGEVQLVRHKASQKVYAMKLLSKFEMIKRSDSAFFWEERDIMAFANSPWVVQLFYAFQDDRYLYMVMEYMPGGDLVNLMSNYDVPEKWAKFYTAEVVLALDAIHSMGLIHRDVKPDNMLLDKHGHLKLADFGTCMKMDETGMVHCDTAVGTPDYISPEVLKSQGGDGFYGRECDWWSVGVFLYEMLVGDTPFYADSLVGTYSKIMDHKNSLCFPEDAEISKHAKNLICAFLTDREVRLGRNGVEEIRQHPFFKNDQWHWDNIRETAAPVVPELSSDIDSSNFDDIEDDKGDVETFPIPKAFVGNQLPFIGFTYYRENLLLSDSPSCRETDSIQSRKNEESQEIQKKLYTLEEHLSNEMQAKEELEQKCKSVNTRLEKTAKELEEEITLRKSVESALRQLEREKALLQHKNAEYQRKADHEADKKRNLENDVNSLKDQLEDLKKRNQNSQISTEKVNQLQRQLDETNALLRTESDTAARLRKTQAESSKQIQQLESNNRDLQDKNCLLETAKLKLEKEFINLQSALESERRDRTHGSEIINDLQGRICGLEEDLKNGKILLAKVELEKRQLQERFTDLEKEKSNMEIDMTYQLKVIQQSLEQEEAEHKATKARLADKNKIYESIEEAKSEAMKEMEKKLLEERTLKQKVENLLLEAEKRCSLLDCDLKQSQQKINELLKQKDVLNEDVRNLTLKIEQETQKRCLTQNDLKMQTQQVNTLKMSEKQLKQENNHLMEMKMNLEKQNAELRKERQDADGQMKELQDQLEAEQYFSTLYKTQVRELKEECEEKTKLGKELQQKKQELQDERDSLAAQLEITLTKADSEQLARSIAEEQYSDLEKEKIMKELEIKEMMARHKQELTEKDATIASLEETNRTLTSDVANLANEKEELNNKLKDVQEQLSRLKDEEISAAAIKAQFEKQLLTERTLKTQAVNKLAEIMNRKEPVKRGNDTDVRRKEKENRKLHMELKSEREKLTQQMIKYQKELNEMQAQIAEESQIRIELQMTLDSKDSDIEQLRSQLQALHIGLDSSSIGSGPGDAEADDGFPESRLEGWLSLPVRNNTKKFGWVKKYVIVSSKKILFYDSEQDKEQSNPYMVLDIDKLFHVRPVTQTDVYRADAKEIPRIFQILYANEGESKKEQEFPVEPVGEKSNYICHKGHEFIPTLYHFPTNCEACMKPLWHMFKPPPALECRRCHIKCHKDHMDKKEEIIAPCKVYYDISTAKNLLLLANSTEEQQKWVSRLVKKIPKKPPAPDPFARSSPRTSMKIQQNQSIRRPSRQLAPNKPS
- method: Inhibition of recombinant human ROCK2 (11 to 552 residues) using KEAKEKRQEQIAKR as substrate incubated for 40 mins in presence of [gamma-33P]ATP and 10 uM ATP by radiometric scintillation counting analysis
metric.name: pIC50
The read-out pIC50 is expressed as -log10 of concentration in moles per litre.

(Q) Any idea what pIC50 came out for NCc1ccc(C(=O)Nc2cccc(NC(=O)COc3ccc4c(=O)ccoc4c3)c2)cc1 on Rho-associated protein kinase 2 (Homo sapiens, UniProt O75116)?
(A) 7.18

(Q) Any idea what pIC50 came out for COC(=O)c1ccc(C(=O)Nc2cccc(NC(=O)COc3ccc4c(=O)ccoc4c3)c2)cc1 on Rho-associated protein kinase 2 (Homo sapiens, UniProt O75116)?
(A) 7.54

(Q) Any idea what pIC50 came out for Cn1ccc(S(=O)(=O)Nc2cccc(NC(=O)COc3ccc4c(=O)ccoc4c3)c2)n1 on Rho-associated protein kinase 2 (Homo sapiens, UniProt O75116)?
(A) 5.87

(Q) Any idea what pIC50 came out for O=C(COc1ccc2c(=O)ccoc2c1)Nc1cccc(NS(=O)(=O)c2ccc(OC(F)(F)F)cc2)c1 on Rho-associated protein kinase 2 (Homo sapiens, UniProt O75116)?
(A) 5.89

(Q) Any idea what pIC50 came out for CN(C)c1ccc(C(=O)Nc2ccc(NC(=O)COc3ccc4c(=O)ccoc4c3)cc2)cc1 on Rho-associated protein kinase 2 (Homo sapiens, UniProt O75116)?
(A) 6.52

(Q) Any idea what pIC50 came out for CC(=O)c1ccc(OCC(=O)Nc2cccc(NC(=O)c3ccc(N(C)C)cc3)c2)cc1F on Rho-associated protein kinase 2 (Homo sapiens, UniProt O75116)?
(A) 7.01

(Q) Any idea what pIC50 came out for CC(C)(C)c1cc(C(=O)Nc2cccc(NC(=O)COc3ccc4c(=O)ccoc4c3)c2)no1 on Rho-associated protein kinase 2 (Homo sapiens, UniProt O75116)?
(A) 8.30

(Q) Any idea what pIC50 came out for CCCc1ccc(C(=O)Nc2cccc(NC(=O)COc3ccc4c(=O)ccoc4c3)c2)cc1 on Rho-associated protein kinase 2 (Homo sapiens, UniProt O75116)?
(A) 7.85

(Q) Any idea what pIC50 came out for CN(C)c1ccc(C(=O)Nc2cc(F)cc(NC(=O)COc3ccc4c(=O)ccoc4c3)c2)cc1 on Rho-associated protein kinase 2 (Homo sapiens, UniProt O75116)?
(A) 7.66

(Q) Any idea what pIC50 came out for O=C(COc1ccc2c(=O)ccoc2c1)Nc1cccc(NC(=O)c2ccc(OC(F)(F)F)cc2)c1 on Rho-associated protein kinase 2 (Homo sapiens, UniProt O75116)?
(A) 7.11

(Q) Any idea what pIC50 came out for CN(C)c1ccc(C(=O)Nc2cccc(NC(=O)COc3ccc4c(c3)OCCC4=O)c2)cc1 on Rho-associated protein kinase 2 (Homo sapiens, UniProt O75116)?
(A) 7.07

* * *

- subject.of.test: Calcium/calmodulin-dependent protein kinase type II subunit beta (Homo sapiens)
- Sequence (Q13554 whole entry, the tested form may be a part): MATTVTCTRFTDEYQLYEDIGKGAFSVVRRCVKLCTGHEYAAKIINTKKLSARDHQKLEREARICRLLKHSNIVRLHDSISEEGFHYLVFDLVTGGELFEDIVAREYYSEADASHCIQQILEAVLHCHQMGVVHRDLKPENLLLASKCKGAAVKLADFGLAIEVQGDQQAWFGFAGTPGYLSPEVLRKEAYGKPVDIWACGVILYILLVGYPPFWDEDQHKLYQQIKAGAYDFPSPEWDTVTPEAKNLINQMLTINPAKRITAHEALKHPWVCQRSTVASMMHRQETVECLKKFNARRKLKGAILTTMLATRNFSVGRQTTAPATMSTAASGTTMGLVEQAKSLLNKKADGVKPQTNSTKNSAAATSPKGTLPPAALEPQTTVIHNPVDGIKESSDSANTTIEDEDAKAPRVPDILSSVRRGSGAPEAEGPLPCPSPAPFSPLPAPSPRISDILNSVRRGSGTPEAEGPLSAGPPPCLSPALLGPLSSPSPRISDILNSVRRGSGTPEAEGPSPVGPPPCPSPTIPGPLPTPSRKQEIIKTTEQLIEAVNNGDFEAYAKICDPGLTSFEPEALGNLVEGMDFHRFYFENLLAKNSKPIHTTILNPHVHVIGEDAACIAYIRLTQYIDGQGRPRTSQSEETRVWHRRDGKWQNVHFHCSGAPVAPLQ
- method: Inhibition of recombinant human CaMK2beta (1 to 315 residues) using calmodulin a substrate incubated for 40 mins in presence of [gamma-33ATP] by radiometric scintillation counting analysis
metric.name: IC50

(Q) Value lookup for IC50; key = CN(C)c1ccc(C(=O)Nc2cccc(NC(=O)COc3ccc4c(=O)ccoc4c3)c2)cc1
(A) > 10 µM

* * *

- subject.of.test: Proto-oncogene tyrosine-protein kinase Src (Homo sapiens, UniProt P12931, T341M)
- method: Inhibition of recombinant full length human SRC T341M mutant using GGEEEEYFELVKK as substrate incubated for 40 mins in presence of [gamma33P]ATP by radiometric scintillation counting analysis
metric.name: IC50

(Q) Any idea what IC50 came out for CN(C)c1ccc(C(=O)Nc2cccc(NC(=O)COc3ccc4c(=O)ccoc4c3)c2)cc1 on Proto-oncogene tyrosine-protein kinase Src (Homo sapiens, UniProt P12931, T341M)?
(A) > 10 µM

* * *

- subject.of.test: Protein kinase C beta type (Homo sapiens, UniProt P05771)
- method: Inhibition of recombinant human PKCbeta2 (2 to end residues) using histone H1 as substrate incubated for 40 mins in presence of [gamma33P]ATP by radiometric scintillation counting analysis
metric.name: IC50

(Q) Value lookup for IC50; key = CN(C)c1ccc(C(=O)Nc2cccc(NC(=O)COc3ccc4c(=O)ccoc4c3)c2)cc1
(A) > 10 µM

* * *

- subject.of.test: Cyclin-dependent kinase-like 2 (Homo sapiens, UniProt Q92772)
- method: Inhibition of recombinant full length human CDKL2 in presence of 10 uM ATP by radiometric scintillation counting analysis
pIC50: −log10 of the molar value.
metric.name: pIC50

(Q) Any idea what pIC50 came out for CN(C)c1ccc(C(=O)Nc2cccc(NC(=O)COc3ccc4c(=O)ccoc4c3)c2)cc1 on Cyclin-dependent kinase-like 2 (Homo sapiens, UniProt Q92772)?
(A) < 5.00

* * *

- subject.of.test: Serine/threonine-protein kinase Nek1 (Homo sapiens, UniProt Q96PY6)
- Sequence (Q96PY6 whole entry, the tested form may be a part): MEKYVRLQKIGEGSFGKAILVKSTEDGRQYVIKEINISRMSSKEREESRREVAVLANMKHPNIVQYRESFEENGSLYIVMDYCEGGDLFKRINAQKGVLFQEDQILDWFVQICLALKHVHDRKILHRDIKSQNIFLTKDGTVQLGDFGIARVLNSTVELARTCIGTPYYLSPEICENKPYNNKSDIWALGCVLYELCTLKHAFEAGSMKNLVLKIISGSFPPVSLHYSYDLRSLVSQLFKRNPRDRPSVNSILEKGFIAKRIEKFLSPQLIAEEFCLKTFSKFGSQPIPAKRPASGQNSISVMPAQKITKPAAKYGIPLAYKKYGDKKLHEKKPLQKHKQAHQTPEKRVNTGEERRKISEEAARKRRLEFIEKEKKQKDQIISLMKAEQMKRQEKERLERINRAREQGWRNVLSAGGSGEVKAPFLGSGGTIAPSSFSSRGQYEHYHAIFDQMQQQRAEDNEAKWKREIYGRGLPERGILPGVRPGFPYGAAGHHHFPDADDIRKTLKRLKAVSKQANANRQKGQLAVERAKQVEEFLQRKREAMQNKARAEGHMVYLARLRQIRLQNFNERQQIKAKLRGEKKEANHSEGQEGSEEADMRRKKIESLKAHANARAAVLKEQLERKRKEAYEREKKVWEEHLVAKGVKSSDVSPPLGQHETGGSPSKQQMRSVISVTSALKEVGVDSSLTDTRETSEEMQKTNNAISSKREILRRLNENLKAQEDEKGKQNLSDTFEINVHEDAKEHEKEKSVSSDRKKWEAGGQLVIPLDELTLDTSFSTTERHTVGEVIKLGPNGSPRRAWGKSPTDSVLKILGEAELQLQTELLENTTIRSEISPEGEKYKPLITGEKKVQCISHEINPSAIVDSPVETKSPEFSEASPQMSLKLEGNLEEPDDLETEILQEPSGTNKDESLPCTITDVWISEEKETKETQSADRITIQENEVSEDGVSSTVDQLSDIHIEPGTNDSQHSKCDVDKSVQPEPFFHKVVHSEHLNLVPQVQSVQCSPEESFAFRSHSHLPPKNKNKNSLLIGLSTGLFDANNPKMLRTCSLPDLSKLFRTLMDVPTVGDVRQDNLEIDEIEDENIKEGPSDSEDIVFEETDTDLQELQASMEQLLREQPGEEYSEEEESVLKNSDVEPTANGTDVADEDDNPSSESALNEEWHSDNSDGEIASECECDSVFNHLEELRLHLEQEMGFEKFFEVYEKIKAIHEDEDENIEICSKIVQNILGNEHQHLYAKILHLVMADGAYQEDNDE
- method: Inhibition of recombinant human NEK1 (1 to 505 residues) using RLGRDKYKTLRQI as substrate measured after 40 mins in presence of [gamma33P]ATP by radiometric scintillation counting analysis
metric.name: IC50

(Q) Value lookup for IC50; key = CN(C)c1ccc(C(=O)Nc2cccc(NC(=O)COc3ccc4c(=O)ccoc4c3)c2)cc1
(A) > 10 µM

* * *

- subject.of.test: Serine/threonine-protein kinase Chk1 (Homo sapiens, UniProt O14757)
- Sequence (O14757 whole entry): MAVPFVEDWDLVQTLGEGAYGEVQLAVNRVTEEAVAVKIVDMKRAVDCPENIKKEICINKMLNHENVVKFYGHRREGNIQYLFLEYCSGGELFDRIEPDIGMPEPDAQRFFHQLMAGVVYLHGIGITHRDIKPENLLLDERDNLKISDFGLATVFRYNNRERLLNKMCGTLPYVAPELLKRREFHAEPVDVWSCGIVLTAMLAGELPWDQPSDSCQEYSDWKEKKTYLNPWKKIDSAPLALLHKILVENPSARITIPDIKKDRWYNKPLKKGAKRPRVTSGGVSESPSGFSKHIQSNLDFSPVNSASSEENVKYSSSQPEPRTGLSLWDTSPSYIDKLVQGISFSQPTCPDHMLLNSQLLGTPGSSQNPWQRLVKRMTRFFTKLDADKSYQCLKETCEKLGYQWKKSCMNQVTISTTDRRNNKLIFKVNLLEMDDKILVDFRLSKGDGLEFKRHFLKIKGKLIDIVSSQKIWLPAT
- method: Inhibition of recombinant full length human CHK1 using KKKVSRSGLYRSP as substrate incubated for 40 mins in presence of [gamma-33ATP] by radiometric scintillation counting analysis
pIC50: −log10 of the molar value.
metric.name: pIC50

(Q) Value lookup for pIC50; key = CN(C)c1ccc(C(=O)Nc2cccc(NC(=O)COc3ccc4c(=O)ccoc4c3)c2)cc1
(A) < 5.00

* * *

- subject.of.test: Serine/threonine-protein kinase Sgk2 (Homo sapiens, UniProt Q9HBY8, S416D)
- Sequence (Q9HBY8 as listed by the source S416D): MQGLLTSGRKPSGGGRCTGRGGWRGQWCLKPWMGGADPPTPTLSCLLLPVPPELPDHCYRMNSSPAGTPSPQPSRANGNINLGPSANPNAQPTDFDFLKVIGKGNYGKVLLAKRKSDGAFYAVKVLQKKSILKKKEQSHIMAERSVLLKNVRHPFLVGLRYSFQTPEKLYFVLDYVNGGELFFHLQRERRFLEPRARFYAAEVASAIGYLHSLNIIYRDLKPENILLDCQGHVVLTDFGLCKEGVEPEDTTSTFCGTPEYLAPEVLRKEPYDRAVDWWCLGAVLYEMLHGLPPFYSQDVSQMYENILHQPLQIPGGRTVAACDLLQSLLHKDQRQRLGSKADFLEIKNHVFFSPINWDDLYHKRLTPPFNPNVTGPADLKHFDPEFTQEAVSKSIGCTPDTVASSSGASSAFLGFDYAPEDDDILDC
- method: Inhibition of recombinant human SGK2 S416D mutant (54 to end residues) using GRPRTSSFAEGKK as substrate incubated for 40 mins in presence of [gamma33P]ATP by radiometric scintillation counting analysis
metric.name: IC50

(Q) Value lookup for IC50; key = CN(C)c1ccc(C(=O)Nc2cccc(NC(=O)COc3ccc4c(=O)ccoc4c3)c2)cc1
(A) > 10 µM

* * *

- subject.of.test: RAC-gamma serine/threonine-protein kinase (Homo sapiens, UniProt Q9Y243, S472D)
- Sequence (Q9Y243 2-479 S472D limits assumed): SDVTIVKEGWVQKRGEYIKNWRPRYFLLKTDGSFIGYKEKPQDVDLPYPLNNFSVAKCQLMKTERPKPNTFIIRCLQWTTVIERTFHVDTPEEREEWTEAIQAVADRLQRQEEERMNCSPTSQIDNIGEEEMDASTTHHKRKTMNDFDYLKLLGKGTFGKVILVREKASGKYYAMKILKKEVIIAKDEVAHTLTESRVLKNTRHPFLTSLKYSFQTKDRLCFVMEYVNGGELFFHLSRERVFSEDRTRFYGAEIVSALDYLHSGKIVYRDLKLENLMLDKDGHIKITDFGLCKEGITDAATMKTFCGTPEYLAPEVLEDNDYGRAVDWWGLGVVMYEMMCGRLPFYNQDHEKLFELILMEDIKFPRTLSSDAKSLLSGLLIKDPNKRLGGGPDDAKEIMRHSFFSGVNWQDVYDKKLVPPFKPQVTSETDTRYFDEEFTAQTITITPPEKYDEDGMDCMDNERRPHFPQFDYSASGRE
- method: Inhibition of recombinant human PKBgamma S472D mutant (117 to end residues) using GRPRTSSFAEGKK as substrate incubated for 40 mins in presence of [gamma33P]ATP by radiometric scintillation counting analysis
metric.name: IC50

(Q) Value lookup for IC50; key = CN(C)c1ccc(C(=O)Nc2cccc(NC(=O)COc3ccc4c(=O)ccoc4c3)c2)cc1
(A) > 10 µM

* * *

- subject.of.test: FKBP12A/mTOR (Homo sapiens, UniProt P42345+P62942)
- Sequence (P62942 2-108 limits assumed, other chains not shown): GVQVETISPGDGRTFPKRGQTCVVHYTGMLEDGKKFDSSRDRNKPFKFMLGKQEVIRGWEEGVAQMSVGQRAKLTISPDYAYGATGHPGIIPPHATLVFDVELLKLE
- method: Inhibition of recombinant full length human mTOR/FKBP12 measured after 40 mins in presence of [gamma33P]ATP by radiometric scintillation counting analysis
metric.name: IC50

(Q) Value lookup for IC50; key = CN(C)c1ccc(C(=O)Nc2cccc(NC(=O)COc3ccc4c(=O)ccoc4c3)c2)cc1
(A) > 10 µM

* * *

- subject.of.test: Wee1-like protein kinase (Homo sapiens, UniProt P30291)
- method: Inhibition of recombinant human WEE1 (214 to end residues) using LSNLYHQGKFLQT as substrate incubated for 40 mins in presence of [gamma33P]ATP by radiometric scintillation counting analysis
pIC50: −log10 of the molar value.
metric.name: pIC50

(Q) Value lookup for pIC50; key = CN(C)c1ccc(C(=O)Nc2cccc(NC(=O)COc3ccc4c(=O)ccoc4c3)c2)cc1
(A) < 5.00
